target: pooled human IgG (human IgG1,2,3 and 4)
Enzyme Activity Endpoint Assay (purified): Fc less than 300 ng/µL is Met; Enzyme Activity Endpoint Assay (purified): Fc greater than or equal to 300 ng/µL is Not met.

Exercise: Take the protein PRT-364 (protein) MSQTEDSESLQRLRDIEDFQAEKKKQNVVYTKWLDGVDVKDHDFRKIVDGNEAYYATPLLNGRGFYDINKDFNRDSDKCAAAVAANMFHYWLDRNRDNVDRFLRQNPEKHGIIELPDGQLKLSDFLNTYESDDGYRDKSKLFDFISENFNGPVWTDKLLDNYINGYAYNYKYGRTIEDPTKNTSKINFFKEVFNEKILTNNHSIRNQNELSVLLSEALYTGKAIGLSYGPAGLRHSLGHIISVWGADLDADGNVVAIYVTDSDDKKLTIGDERVGLKRYKISTDDEGRLRLTAYEETHNTGGQIRGLWTLDTGKQAWADYFDKTEQTGTDQAEQ and say whether its Enzyme Activity Endpoint Assay (purified): Fc is less than 300 ng/µL.
Solution: Not met

Exercise: Take the protein PRT-341 (protein) MTITSVWTKGVTPPTPEDFRENNEDVLHAPYLANQGWYDITKAFDGKDNLLCGAATAGNMLHWWFDQNKEEIERYLKKHPEKQKIIFNNQEWFDVKAAIDTKDSQTNSKLFNYFRDKAFPNLSARQLGVMPDLVLDMFINGYYLNLPKTQSTDVNRPYQDKDKRGGIFDAVFTRGDQTTLLTARHDLKNKGLNEISDLIKQELTEGKALALSHTYANVSINHVINLWGADFDAEGNLEAIYVTDSDANASIGMKKYAVGVNAHGKVAISAKKIEGDNIGAQVLGLFTLSTGQDIWQKLS and say whether its Enzyme Activity Endpoint Assay (purified): Fc is less than 300 ng/µL.
Solution: Met

Exercise: Take the protein PRT-319 (protein) MTITSVWTKGVTPPTPEDFRENNEDVLHAPYVANQGWYDITKTFDGKDNLLCGAATAGNMLHWWFDQNKEEIERYLKKHPEKQKIIFNNQELFDVKAAIDTKDSQTNSKLFDYFRDKAFPNLSARQLGVMPDLVLDMFINGYYLNLGKTQSTDVNRPYQDKDKRGGIFDAVFTRGDQTTLLTARHDLKNKGLNEISDLIKQELTEGKALALSHTYANVRINHVINLWGADFDAEGNLIAIYVTDSDANASIGMKKYFVGRNANGKVAISAKKIEGDNIGAQVLGLFTLSLGQDIWQKLS and say whether its Enzyme Activity Endpoint Assay (purified): Fc is less than 300 ng/µL.
Solution: Not met

Exercise: Take the protein PRT-488 (protein) MVTSVWTKGVTPPTDFRKIVDGNIAYYHAPYKAGQGWYDITKAFDGGDNLLCGAATAGNMLHWWFDQNKDQIERYLKEHPEKQKIIFNNQELFDLKAAIDTKDSQTNSELFNYFKEKAFPYLSTKHLGVFPDHVLDMFINGYRLSLTNHGPTPVKEGSKDKRGGIFDAVFTRGVQSKLLTSRHDLKNKTLKEISDLIKQELTEGKALGLSHTYANVRINHVINLWGADFDSEGNLKAIYVTDSDTNASIGMKKYFVGVNSAGKVAISAKEIKEDNIGAQVLGLFTLSTGQDIWNQTNLEHHHHHH and say whether its Enzyme Activity Endpoint Assay (purified): Fc is less than 300 ng/µL.
Solution: Met

Exercise: Take the protein PRT-304 (protein) MVTSVWTKGVTPPTDFIKGEDVFHAPYDAGQGWYDITKTFNGKDDLLCGAATAGNMLHWWFDQNKEYIEAYLKKHPEKQKIMFGDQELLDVRKAINTKGSQKNSELFNYFRDKAFPNLSARRLGVMPDLVLDMFINGYYLNVTKTQTTDVNRTYQEKDKRGGIFDAVFTRGDQSKLLTSRHDFKEKGLKEISDLIKQELTEGKALGLSHTYANVRISHVINLWGADFDSDGNLKAIYVTDSDSNASIGMKKYFVGVNSSGKVAISAKEIKEDNIGAQVLGLFTLSTGQDIWNQTN and say whether its Enzyme Activity Endpoint Assay (purified): Fc is less than 300 ng/µL.
Solution: Not met

Exercise: Take the protein PRT-310 (protein) MQITSVWTKGVTPLTPEQFRENNEDVIHAPYLAHQGWYDITKAFDGKDNLLCGAATAGNMLHWWFDQNKTEIEAYLSKHPEKQKIIFNNQELFDLKAAIDTKDSQTNSQLFDYFRDKAFPNLSARQLGVMPDLVLDMFINGYYLNVFKTQSTDVNRPYQDKDKRGGIFDAVFTRGDQTTLLTARHDLKNKGLNDISTIIKQELTEGRALALSHTYANVSISHVINLWGADFDAEGNLEAIYVTDSDANASIGMKKYFVGRNAHGHVAISAKKIEGENIGAQVLGLFTLSSGKDQWQKLS and say whether its Enzyme Activity Endpoint Assay (purified): Fc is less than 300 ng/µL.
Solution: Not met

Exercise: Take the protein PRT-358 (protein) MSQTEDSESLQRLRDIEDFQAEKKDQNVVYTKWLDGVDVKDHDFRKIVDGNIAYYATPLLNGRGWYDINKDFNRDSDKCAAAVAANMFHYWLDRNRDNVDRFLRQNPEKHGIIELPDGQLKLSDFLNTYESDDGYRDKSKLFDFISENFNGPVWTDKLLDNYINGYAYNYKYGRTIEDPTKNTSKINFFKEVFNEKILTNNHSIRNQNEFSVLLIEALYTGKAIGLSYGPAGLRHSLGHIISVWGADLDADGNVVAIYVTDSDDKKLTIGDERVGLKRYKISTDDEGRLRLTAYEETHNTGGQVRGLWTLDTGKQAWADYFDKTEQTGTDQAEQ and say whether its Enzyme Activity Endpoint Assay (purified): Fc is less than 300 ng/µL.
Solution: Met

Exercise: Take the protein PRT-356 (protein) MSQTEDSESLQRLRDIEDFQAEKEKQNVVYTKWLDGVDVKDHDFRKIVDGNSAYYATPLLNGRGFYDINKDFNRDSDKCAAAVAANMFHYWLDRNRDNVDRFLRQNPEKHGIIELPDGQLKLSDFLNTYESDDGYRDKSKLFDFISNNFNGPVWTDKLLDNYINGYAYNYKYGRTIEDPTKNTSKINFFKEVFNEKILTNNHSIRNQNEFSVLLSEALYTGKAIGLSYGPAGLRHSLGHIISVWGADLDADGNVVAIYVTDSDDKKLTIGDERVGLKRYKISTDDEGRLRLTAYEETHNTGGQVRGLWTLDTGKQAWADYFDKTEQTGTDQAEQ and say whether its Enzyme Activity Endpoint Assay (purified): Fc is less than 300 ng/µL.
Solution: Not met
